This collection of values is drawn from ChEMBL document CHEMBL5724914.

# run_conditions: human gut metagenome, 24 h, 2 µM; further: call rule not given here
property_measured: Bacterial Biotransformation

{"molecule": "COc1cc2nc(N3CCN(C(=O)C4CCCO4)CC3)nc(N)c2cc1OC (stereo not drawn)", "meas_value": "Compound NOT metabolized"}
{"molecule": "CC(N)C12CC3CC(CC(C3)C1)C2 (stereo not drawn)", "meas_value": "Compound NOT metabolized"}
{"molecule": "CCN(CC)CCNC(=O)c1ccc(NC(C)=O)cc1 [ACECAINIDE]", "meas_value": "Compound NOT metabolized"}
{"molecule": "CCc1oc2ccccc2c1C(=O)c1cc(Br)c(O)c(Br)c1", "meas_value": "Compound metabolized"}
{"molecule": "CC(=O)OCC(=O)[C@@]1(OC(C)=O)[C@@H](C)C[C@H]2[C@@H]3C[C@H](F)C4=CC(=O)C=C[C@]4(C)[C@@]3(F)[C@@H](O)C[C@@]21C [DIFLORASONE DIACETATE]", "meas_value": "Compound metabolized"}
{"molecule": "COc1ccc(/C=C/C(=O)Nc2ccccc2C(=O)O)cc1OC", "meas_value": "Compound NOT metabolized"}
{"molecule": "Clc1cccc(Cl)c1N=C1NCCN1", "meas_value": "Compound metabolized"}
{"molecule": "O=C(O)CCC(=O)O.O=C(O[C@H]1CN2CCC1CC2)N1CCc2ccccc2[C@@H]1c1ccccc1 [SOLIFENACIN SUCCINATE]", "meas_value": "Compound metabolized"}
{"molecule": "CCCCCNC(=N)N/N=C/c1c[nH]c2ccc(OC)cc12.O=C(O)/C=C\\C(=O)O [TEGASEROD MALEATE]", "meas_value": "Compound metabolized"}
{"molecule": "CC(C)NCC(O)COc1ccc(CC(N)=O)cc1 (stereo not drawn)", "meas_value": "Compound NOT metabolized"}
{"molecule": "CC(C)(C)N.CCC[C@H](N[C@@H](C)C(=O)N1[C@H](C(=O)O)C[C@@H]2CCCC[C@@H]21)C(=O)OCC", "meas_value": "Compound metabolized"}
{"molecule": "CCOC(=O)[C@H](CCc1ccccc1)N[C@@H](C)C(=O)N1Cc2ccccc2C[C@H]1C(=O)O", "meas_value": "Compound metabolized"}
{"molecule": "CCN1CCCC1CNC(=O)c1cc(S(=O)(=O)CC)c(N)cc1OC (stereo not drawn) [AMISULPRIDE]", "meas_value": "Compound NOT metabolized"}
